- Test system: MS2 coat protein
- test-summary: apparent Kd, MS2 coat protein; higher = weaker binding; RNA-MaP array; theophylline 2 mM where present
- settings: ligand present: theophylline; designed as: OFF switch for theophylline
Readings of apparent Kd for the listed sequences
Could you give the number and then its unit, please?

residue-codes: AAAACACAUGAGGAUCACCCAUGUCGUGAUACCAGUCAACAUGAGGACCCUUGGCAGCAUAAAAUGGGUAACAUGAGGAUAACCC
readout-label: apparent Kd
val: 146 nM
//
residue-codes: GAUGAAGUAACUGAUACCAGUGUACUGACAUGAGGAUCACCCAUGUUGGGUUUUGUUGUACACCCUUGGCAGCAGAAUCUUUAUC
readout-label: apparent Kd
val: 84.9 nM

## Input Any idea what its apparent Kd is? The sequence is "AUCUGUAUGUUUUCGUGUUUUAUUACAGAUACCAGACUAUACGUUGUCCCUUGGCAGCUGGAUGACAUGAGGAUCACCCAUGUUG"
## Output 36.6 nM

## Input Any idea what its apparent Kd is? The sequence is "GAGCUGAUGUAGAAAUUUUAUUUAUGAGAUACCAGUACAGAAAUGUACCCUUGGCAGCUCAAUUUUACAUGAGGAUCACCCAUGU"
## Output 13.4 nM

## Input Any idea what its apparent Kd is? The sequence is "AGACAUGAGGAUCACCCAUGUAGUACGGAUACCAGAUCCAGAUGUAUCCCUUGGCAGCUGUGGUACAGCGUUACAUCGCUCCUAG"
## Output 19.4 nM

## Input Any idea what its apparent Kd is? The sequence is "AGACAUGAGGAUCACCCAUGUAGCACGGAUACCAGAUCCAGAUGUAUCCCUUGGCAGCUGUGGUACAGCGUUGCAACGCUCCUAG"
## Output 28.1 nM

## Input Any idea what its apparent Kd is? The sequence is "GCGAUACGUACUGAUACCAGAGACAUGAGGAUCACCCAUGUCCCAUGAUCAUACCUCAGACUCCCUUGGCAGCAGGAUAAGUGAG"
## Output 18.3 nM
